Measured Enzyme Activity Endpoint Assay (purified): Fc by item
biological target: pooled human IgG
State the answer as a number, implicitly in ng/µL.

{"protein": "PRT-74 (protein) MANQEIRYSEVTPSHVTSVWTKGVTPPANFTQGEDVFHAPYVANQGWYDITKTFNGKDNLLCGAATAGNMLHWWFDQNKEEIEAYLKKHPEKQKIMFGDQELLDVRKVINTKDSQTNSELFNYFRDKAFPGLSARRLGVMPDLVLDMFINGYYLNVYKTQTTDVNRTYQEKDRRGGIFDAVFTRGDQSKLLTSRHDFKEKTLKEISDLIKKELTEGKALGLSHTYANVRINHVINLWGADFDSNGNLKAIYVTDSDSNASIGMKKYFVGVNSAGKVAISAKEIKEDNIGAQVLGLFTLSTGQDIWNQTN", "result-number": 73}

Now for another entry.
According to the records, this protein PRT-68 (protein) MANQEIRYSEVTPYHVTSVWTKGVTPPANFTQGEDVFHAPYVANQGWYDITKTFNGKDDLLCGAATAGNMLHWWFDQNKDQIKRYLEEHPEKQKINFNGEQMFDVKEAIDTKNHQLDSKLFEYFKEKAFPYLSTKHLGVFPDHVIDMFINGYRLSLTNHGPTPVKEGSKDPRGGIFDDVFTRGDQSKLLTSRHDFKEKNLKEISDLIKKELTEGKALGLSHTYANVRINHVINLWGADFDSNGNLKAIYVTDSDSNASIGMKKYFVGVNSAGKVAISAKEIKEDNIGAQVLGLFTLSTGQDSWNQTN displays Enzyme Activity Endpoint Assay (purified): Fc of 133
